Test system: AncSZ
METHOD DESCRIPTION: phosphorylation enrichment, bacterial display (enrichment ratio); higher = better substrate or ligand; peptides without Tyr show the background
Task for the reader: assign each of the following sequences its reported phosphorylation enrichment.
Answers are plain numbers.

> print(dat)
                 sequence.string  readout.number
1                    LAVNPYGPPDP           0.796
2  GLDGSYLPRDS [SH2D1A_Y29_L31P]           0.663
3       IHHIDYYKKTT [FGFR1_Y653]           0.783

For each listed entry, give its phosphorylation enrichment.
1. LLREWYVQDPY [SIX3_Y225_L226V]
2. LLVVLYKYRCY [PSEN1_Y154]
3. AVVEPYNSILT [TUBA1A_Y185]
4. FQNSLYAPDFS [FAM92A_Y226_R222Q_YF]
5. PEADKYHLTFA [FGG_Y300_R301H_YF]
6. HIAKGYRRDNP [HARS1_Y156_V155G]

1.18
1.11
0.686
0.9
1.88
0.731

* * *

Task for the reader: assign each of the following sequences its reported phosphorylation enrichment.
SYSTEM TESTED: Fyn (UniProt P06241)
Sequence (P06241 whole entry, looked up): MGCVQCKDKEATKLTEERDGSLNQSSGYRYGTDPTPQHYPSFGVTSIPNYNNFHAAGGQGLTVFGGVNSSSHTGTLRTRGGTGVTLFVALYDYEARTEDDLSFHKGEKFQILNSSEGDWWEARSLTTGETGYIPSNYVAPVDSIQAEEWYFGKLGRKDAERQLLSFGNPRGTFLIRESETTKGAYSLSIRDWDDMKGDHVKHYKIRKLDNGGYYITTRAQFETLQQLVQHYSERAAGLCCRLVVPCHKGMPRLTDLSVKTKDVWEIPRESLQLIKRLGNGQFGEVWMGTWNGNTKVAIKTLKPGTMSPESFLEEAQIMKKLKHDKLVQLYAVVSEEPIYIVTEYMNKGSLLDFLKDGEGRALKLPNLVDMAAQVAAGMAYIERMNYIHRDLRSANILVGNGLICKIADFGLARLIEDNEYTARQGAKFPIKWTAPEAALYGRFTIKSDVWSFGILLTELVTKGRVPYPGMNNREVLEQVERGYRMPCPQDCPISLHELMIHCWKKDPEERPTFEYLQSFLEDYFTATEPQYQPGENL
METHOD DESCRIPTION: phosphorylation enrichment, bacterial display (enrichment ratio); higher = better substrate or ligand; peptides without Tyr show the background
Numbers only.

For each listed entry, give its phosphorylation enrichment.
1. SLFQFYFQQKG [CHKB_Y381_R377L]
2. FTHSDYQFSQR [PKP2_Y166_YF]
3. QWQQLYDTLNA [EIF3M_Y351]
4. FLTQHYDAEPQ [ANG_Y38_K41E]
5. ALIKAYDKAVA [SMN1_Y43]
6. VISNAYVDLAP [HSD17B4_Y602]
7. AEEKEYHAEEG [EGFR_Y869_G873E]

0.397
0.63
5.55
0.478
0.458
0.428
0.633

For each listed entry, give its phosphorylation enrichment.
1. FDGKEYDPVEA [MAPRE2_Y167_YF]
2. VPFARYLAMNK [HARS1_Y138]
3. KDQPDYKFQPR [SOX9_Y172_H169Q_YF]

[0.62, 0.382, 0.382]

* * *

SYSTEM TESTED: Jak2 (UniProt O60674)
Sequence (O60674 whole entry, looked up): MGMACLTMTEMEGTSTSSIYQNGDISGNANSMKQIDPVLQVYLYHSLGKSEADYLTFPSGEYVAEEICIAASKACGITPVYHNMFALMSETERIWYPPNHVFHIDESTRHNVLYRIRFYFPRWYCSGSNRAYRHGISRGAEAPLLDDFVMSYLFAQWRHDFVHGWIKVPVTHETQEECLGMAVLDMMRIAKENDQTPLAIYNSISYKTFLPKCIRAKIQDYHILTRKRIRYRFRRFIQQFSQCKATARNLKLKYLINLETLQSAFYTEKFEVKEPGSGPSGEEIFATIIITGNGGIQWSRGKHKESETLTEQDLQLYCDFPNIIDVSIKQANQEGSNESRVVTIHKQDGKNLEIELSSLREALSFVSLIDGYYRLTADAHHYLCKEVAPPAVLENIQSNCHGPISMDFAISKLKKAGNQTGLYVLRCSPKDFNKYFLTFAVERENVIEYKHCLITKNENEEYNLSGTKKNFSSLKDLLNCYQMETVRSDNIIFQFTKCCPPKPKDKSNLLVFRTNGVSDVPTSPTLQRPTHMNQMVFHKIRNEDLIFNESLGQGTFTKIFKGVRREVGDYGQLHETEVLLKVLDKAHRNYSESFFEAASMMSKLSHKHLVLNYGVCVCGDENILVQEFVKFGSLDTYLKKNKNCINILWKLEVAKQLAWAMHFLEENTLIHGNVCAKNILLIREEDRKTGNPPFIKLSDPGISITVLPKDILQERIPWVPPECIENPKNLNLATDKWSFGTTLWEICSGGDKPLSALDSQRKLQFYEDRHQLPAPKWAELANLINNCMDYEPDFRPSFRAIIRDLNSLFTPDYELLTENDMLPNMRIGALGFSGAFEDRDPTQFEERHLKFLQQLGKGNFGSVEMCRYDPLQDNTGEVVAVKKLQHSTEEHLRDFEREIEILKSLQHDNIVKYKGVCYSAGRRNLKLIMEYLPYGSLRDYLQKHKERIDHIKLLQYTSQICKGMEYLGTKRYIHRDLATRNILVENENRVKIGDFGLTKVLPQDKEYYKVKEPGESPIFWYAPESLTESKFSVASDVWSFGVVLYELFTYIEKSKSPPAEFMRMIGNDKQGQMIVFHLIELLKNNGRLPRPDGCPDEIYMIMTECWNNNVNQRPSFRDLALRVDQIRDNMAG
METHOD DESCRIPTION: phosphorylation enrichment, bacterial display (enrichment ratio); higher = better substrate or ligand; peptides without Tyr show the background
Task for the reader: assign each of the following sequences its reported phosphorylation enrichment.
Answers are plain numbers.

> print(dat)
                     sequence.string        experimental.readout  readout.number
1            FAELVYTGFWH [ASS1_Y322]  phosphorylation enrichment            1.67
2     YRRITYYNWRH [PDE6B_Y556_H557Y]  phosphorylation enrichment            0.47
3        RLMLQYDAVVN [SLC25A32_Y152]  phosphorylation enrichment            1.13
4  DLEKTYNTYRS [B4GALNT2_Y538_A533D]  phosphorylation enrichment           0.823
5       LDLSYYHTSSS [EMD_Y182_P183H]  phosphorylation enrichment            1.51

For each listed entry, give its phosphorylation enrichment.
1. IFGVSYGEFRF [CFTR_Y512_D513G_YF]
2. LARNMYDKEYY [MET_Y1230_D1228N]

1. 0.99
2. 0.84

* * *

SYSTEM TESTED: Jak2 (UniProt O60674)
METHOD DESCRIPTION: phosphorylation enrichment, bacterial display (enrichment ratio); higher = better substrate or ligand; peptides without Tyr show the background
EXPERIMENTAL READOUT: phosphorylation enrichment
Numbers only.

Recorded phosphorylation enrichment, per entry:
> print(dat)
                     sequence.string          system.tested  readout.number
1            HGEAYYSEVKP [PAK5_Y182]  Jak2 (UniProt O60674)             1.7
2           VASIFYTLVIP [OR8K3_Y277]  Jak2 (UniProt O60674)            1.45
3  LARDMHDKEFF [MET_Y1230_Y1230H_YF]  Jak2 (UniProt O60674)            1.15
4       FGSLLYKFAFK [FANCD2_Y458_YF]  Jak2 (UniProt O60674)           0.964
5        PTTKTYFPHFA [HBA1_Y43_D48A]  Jak2 (UniProt O60674)           0.469

For each listed entry, give its phosphorylation enrichment.
1. AVLVQYYMEHH [PTPN11_Y80_E76V]
2. MIAIRYSHSRR [ACOXL_Y260_T255M]
3. ARGMEYLASKK [FGFR1_Y613]
4. NQELIYEGQRL [TBK1_Y354_R357Q]
5. SHGKRYRVPSD [HHIPL2_Y395]

1. 0.821
2. 0.434
3. 0.662
4. 0.956
5. 0.314

For each listed entry, give its phosphorylation enrichment.
1. MTKEQYIKMNR [ARFGEF2_Y797]
2. TAIFIYIRPKA [OR10C1_Y258_L255I]

[0.563, 1.46]

* * *

SYSTEM TESTED: Jak2 (UniProt O60674)
METHOD DESCRIPTION: phosphorylation enrichment, bacterial display (enrichment ratio); higher = better substrate or ligand; peptides without Tyr show the background
Label t when phosphorylation enrichment >= 1; otherwise f.

> print(dat)
                    sequence.string  label.value
1        FLTQHYDAEPQ [ANG_Y38_K41E]            f
2      PGQRVYVVAES [SHH_Y316_R321S]            t
3           GLSDPYVKIHL [SYT2_Y309]            f
4          LRYEVYGGENE [STOX1_Y610]            t
5     VGGRIYIDDAL [PKLR_Y218_G222A]            f
6  PTDCVYVMPTV [MYO7A_Y1668_S1666C]            t

Does the reported phosphorylation enrichment for SVTCMYSPALN [TP53_Y126_T125M] fall at or above the 1 mark?
t

* * *

SYSTEM TESTED: Grb2 SH2 (UniProt P62993)
Sequence (P62993 whole entry, looked up): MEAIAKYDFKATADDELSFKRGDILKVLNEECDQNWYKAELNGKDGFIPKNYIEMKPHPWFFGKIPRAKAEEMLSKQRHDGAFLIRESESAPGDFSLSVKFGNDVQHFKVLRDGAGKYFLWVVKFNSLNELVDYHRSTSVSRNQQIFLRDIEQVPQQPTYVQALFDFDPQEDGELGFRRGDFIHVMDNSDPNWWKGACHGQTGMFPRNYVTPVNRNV
METHOD DESCRIPTION: SH2 binding enrichment of the phosphorylated peptide, bacterial display (enrichment ratio); higher = better substrate or ligand; peptides without Tyr show the background
Label True when SH2 binding enrichment >= 0.8; otherwise False.

Consider the worked cases shown below.
> print(dat)
                     sequence.string  label.value
1      SGGSSYGSGGC [KRT1_Y532_G537C]        False
2          HNGVSYYINLC [IGF2R_Y2024]         True
3  RLLRGYDQLAF [HLA-C_Y137_S140L_YF]         True
4     KDHPDYKYQAR [SOX10_Y171_P175A]         True
5      PNLILYGDFRQ [MYH7_Y715_R712L]         True

Does the reported SH2 binding enrichment for GVTLLYFGRDN [ADGRD1_Y85_Y89D_YF] fall at or above the 0.8 mark?
True

Does the reported SH2 binding enrichment for SSSGAYGGGFG [KRT19_Y61_YF] fall at or above the 0.8 mark?
False

Does the reported SH2 binding enrichment for VPFARYLAMNK [HARS1_Y138] fall at or above the 0.8 mark?
False

Does the reported SH2 binding enrichment for KDPPDYKFQPR [SOX9_Y172_H169P_YF] fall at or above the 0.8 mark?
True

Does the reported SH2 binding enrichment for RELGEYALAEF [ALDH1A3_Y492_YF] fall at or above the 0.8 mark?
False

Does the reported SH2 binding enrichment for AQESNYRLLRQ [SLC20A2_Y377_R382Q] fall at or above the 0.8 mark?
True

* * *

Task for the reader: assign each of the following sequences its reported phosphorylation enrichment.
SYSTEM TESTED: FGFR1 (UniProt P11362)
Sequence (P11362 whole entry, looked up): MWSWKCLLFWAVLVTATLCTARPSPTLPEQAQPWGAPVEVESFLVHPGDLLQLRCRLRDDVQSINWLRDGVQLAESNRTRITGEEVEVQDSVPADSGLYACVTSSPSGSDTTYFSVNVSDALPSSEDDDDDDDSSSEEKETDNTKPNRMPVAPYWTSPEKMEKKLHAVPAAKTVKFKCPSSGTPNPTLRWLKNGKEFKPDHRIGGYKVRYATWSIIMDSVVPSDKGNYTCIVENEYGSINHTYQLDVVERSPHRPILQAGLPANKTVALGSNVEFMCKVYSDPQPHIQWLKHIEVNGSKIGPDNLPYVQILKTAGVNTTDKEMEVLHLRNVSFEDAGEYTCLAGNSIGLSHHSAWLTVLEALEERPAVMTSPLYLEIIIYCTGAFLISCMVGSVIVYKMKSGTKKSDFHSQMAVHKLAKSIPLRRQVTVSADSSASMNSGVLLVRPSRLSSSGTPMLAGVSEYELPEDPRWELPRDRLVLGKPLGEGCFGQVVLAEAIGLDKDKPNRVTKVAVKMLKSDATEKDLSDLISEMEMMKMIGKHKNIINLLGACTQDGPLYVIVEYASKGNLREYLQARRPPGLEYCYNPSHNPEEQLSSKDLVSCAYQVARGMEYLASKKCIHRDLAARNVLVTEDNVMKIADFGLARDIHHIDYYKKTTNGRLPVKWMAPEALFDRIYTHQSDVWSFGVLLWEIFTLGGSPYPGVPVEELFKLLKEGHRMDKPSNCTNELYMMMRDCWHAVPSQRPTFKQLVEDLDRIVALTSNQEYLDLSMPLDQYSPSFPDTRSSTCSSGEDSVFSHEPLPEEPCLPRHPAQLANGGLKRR
METHOD DESCRIPTION: phosphorylation enrichment, bacterial display (enrichment ratio); higher = better substrate or ligand; peptides without Tyr show the background

> print(dat)
                    sequence.string  result
1    TSNQEYLYLSM [FGFR1_Y766_D768Y]    12.5
2  DFPMGYPSFLA [TBCK_Y153_I151M_YF]   0.424
3    PFTRNYFVQAV [CYBA_Y87_R90Q_YF]    1.16
4  QRHFVYFFSFL [PTEN_Y176_R173H_YF]    1.69
5          LRYEVYGGENE [STOX1_Y610]   0.631

For each listed entry, give its phosphorylation enrichment.
1. HNLDYYKETTN [FGFR3_Y648_K650E]
2. GGYNNYGYGND [HNRNPH3_Y159]
3. SSSGAYGGGFG [KRT19_Y61_YF]
4. LLKAGYHGVLR [TTPA_Y100]
5. ASNFNYFFHRE [KCNA1_Y413_V408A_YF]
6. SVTCMYSPALN [TP53_Y126_T125M]
7. NARGLYFKLHN [GATA2_Y376_C373R_YF]

2.08
0.66
0.412
0.646
0.506
0.481
0.554

For each listed entry, give its phosphorylation enrichment.
1. NRVEIYEKTVE [CYFIP1_Y108]
2. IHETTHNSIMK [ACTA1_Y281_Y281H]
3. DFSLKYPTDIP [APC_Y1183_A1184P_YF]
4. TLERHYEELQA [SPTBN2_Y834]
5. HKNNNYEPSLF [BRCA2_Y57_N60S]
6. PSRKDYETYQS [CTNND2_Y1154_P1159S]
7. KRGASYILKLA [SERPINB1_Y84]

[0.523, 0.425, 0.459, 0.472, 0.793, 0.539, 0.509]

For each listed entry, give its phosphorylation enrichment.
1. MARDIYQASYY [LTK_Y672_R673Q]
2. SVTCTYFPALN [TP53_Y126_S127F]
3. CWAVKYLQMVG [AVPR2_Y117_R113W]
4. KKKKQYKGKFL [CASK_Y708_D710G_YF]
5. MTKEQYIKMNR [ARFGEF2_Y797]

1.41
0.632
0.495
0.485
0.458

For each listed entry, give its phosphorylation enrichment.
1. VASSLYDIFAR [GLB1_Y294_L297F]
2. EGDGVYTLNNE [HP_Y125]

1. 0.637
2. 0.595

The values you see were collected from the supplement of paper PMC10065799.
